The values you see were collected from PubChem BioAssay AID2060616.

Tested on: 377384-186-R-J1-PDC complex spheroid viability
Assay: Anticancer human tumor 377384-186-R-J1-PDC patient-derived pancreatic carcinoma cell line growth inhibition [CLK]; active = viability on the fitted dose curve at most 10% of control; inactive = the rest
Conditions: second compound 1 µM; first compound 1 µM
Description: A high-throughput screen of multi-cell type tumor spheroids was designed to identify active combinations of […] and targeted small molecules. Complex spheroids include a stromal component modeled by human endothelial cells (HUVEC) and fibroblasts modeled by human mesenchymal stem cells (MSCs). […] Compounds. […] If the clinical Cmax for an agent had not been determined, the highest concentration tested was 10 microM. […]
Possible outcomes: active, inactive

• Nc1ccccc1NC(=O)c1ccc(CNC(=O)OCc2cccnc2)cc1 + CNC(=O)c1ccc(Nc2nc(OC3CCCC3)c3c(-c4ccc5nc(C)oc5c4)c[nH]c3n2)c(OC)c1 = inactive
• CC(=O)O[C@H]1C(=O)[C@@]2(C)[C@H]([C@H](OC(=O)c3ccccc3)[C@]3(O)C[C@H](OC(=O)[C@H](O)[C@@H](NC(=O)c4ccccc4)c4ccccc4)C(C)=C1C3(C)C)[C@]1(OC(C)=O)CO[C@@H]1C[C@@H]2O + CN1CCN(c2cc(C(=O)Nc3cc4cc(-c5cnn(C)c5)ccc4cn3)ccn2)CC1 = active
• CC1COCCN1c1cc(C2(S(C)(=N)=O)CC2)nc(-c2ccnc3[nH]ccc23)n1 (centres undefined) + CNC(=O)c1ccc(Nc2nc(OC3CCCC3)c3c(-c4ccc5nc(C)oc5c4)c[nH]c3n2)c(OC)c1 = inactive
• C=C(F)C(=O)N1CCN(c2nc(OCC3CCCN3C)nc3c2CCN(c2cccc4cccc(Cl)c24)C3)CC1CC#N (centres undefined) + CNC(=O)c1ccc(Nc2nc(OC3CCCC3)c3c(-c4ccc5nc(C)oc5c4)c[nH]c3n2)c(OC)c1 = inactive
• COC1C=CCC(C)C(C)S(=O)(=O)NC(=O)c2ccc3c(c2)N(CC2CCC21)CC1(CCCc2cc(Cl)ccc21)CO3 (centres undefined) + CNC(=O)c1ccc(Nc2nc(OC3CCCC3)c3c(-c4ccc5nc(C)oc5c4)c[nH]c3n2)c(OC)c1 = inactive
• COc1c(OCCCN2CCOCC2)ccc2c3n(c(=NC(=O)c4cnc(N)nc4)nc12)CCN3 + CNC(=O)c1ccc(Nc2nc(OC3CCCC3)c3c(-c4ccc5nc(C)oc5c4)c[nH]c3n2)c(OC)c1 = active
• COc1ccc([C@@H](O)c2cc(-c3ncnc4cc(N5CCOCC5)ccc34)c(F)cc2Cl)nn1 + CNC(=O)c1ccc(Nc2nc(OC3CCCC3)c3c(-c4ccc5nc(C)oc5c4)c[nH]c3n2)c(OC)c1 = inactive
• CC1COCCN1c1cc(C2(S(C)(=N)=O)CC2)nc(-c2ccnc3[nH]ccc23)n1 (centres undefined) + CN1CCN(c2cc(C(=O)Nc3cc4cc(-c5cnn(C)c5)ccc4cn3)ccn2)CC1 = active
• CC(Nc1ccc2c(c1)OCCn1cc(N3C(=O)OCC3C(F)F)nc1-2)C(N)=O (centres undefined) + CNC(=O)c1ccc(Nc2nc(OC3CCCC3)c3c(-c4ccc5nc(C)oc5c4)c[nH]c3n2)c(OC)c1 = inactive
• CC1(C)CCC(CN2CCN(c3ccc(C(=O)NS(=O)(=O)c4ccc(NCC5CCOCC5)c([N+](=O)[O-])c4)c(Oc4cnc5[nH]ccc5c4)c3)CC2)=C(c2ccc(Cl)cc2)C1 + CNC(=O)c1ccc(Nc2nc(OC3CCCC3)c3c(-c4ccc5nc(C)oc5c4)c[nH]c3n2)c(OC)c1 = inactive
• COc1ccc([C@@H](O)c2cc(-c3ncnc4cc(N5CCOCC5)ccc34)c(F)cc2Cl)nn1 + CN1CCN(c2cc(C(=O)Nc3cc4cc(-c5cnn(C)c5)ccc4cn3)ccn2)CC1 = active
• C=CC(=O)N1CCN(c2nc(=O)n(-c3c(C)ccnc3C(C)C)c3nc(-c4c(O)cccc4F)c(F)cc23)C(C)C1 (centres undefined) + CNC(=O)c1ccc(Nc2nc(OC3CCCC3)c3c(-c4ccc5nc(C)oc5c4)c[nH]c3n2)c(OC)c1 = inactive
• Nc1ccn(C2OC(CO)C(O)C2(F)F)c(=O)n1 (centres undefined) + CN1CCN(c2cc(C(=O)Nc3cc4cc(-c5cnn(C)c5)ccc4cn3)ccn2)CC1 = active
• Nc1ccccc1NC(=O)c1ccc(CNC(=O)OCc2cccnc2)cc1 + CN1CCN(c2cc(C(=O)Nc3cc4cc(-c5cnn(C)c5)ccc4cn3)ccn2)CC1 = active
• C#Cc1c(F)ccc2cc(O)cc(-c3ncc4c(N5CC6CCC(C5)N6)nc(OCC56CCCN5CC(F)C6)nc4c3F)c12 (centres undefined) + CN1CCN(c2cc(C(=O)Nc3cc4cc(-c5cnn(C)c5)ccc4cn3)ccn2)CC1 = active
• C=C(F)C(=O)N1CCN(c2nc(OCC3CCCN3C)nc3c2CCN(c2cccc4cccc(Cl)c24)C3)CC1CC#N (centres undefined) + CN1CCN(c2cc(C(=O)Nc3cc4cc(-c5cnn(C)c5)ccc4cn3)ccn2)CC1 = active
• COc1cccc2c1C(=O)c1c(O)c3c(c(O)c1C2=O)CC(O)(C(=O)CO)CC3OC1CC(N)C(O)C(C)O1 (centres undefined) + CN1CCN(c2cc(C(=O)Nc3cc4cc(-c5cnn(C)c5)ccc4cn3)ccn2)CC1 = active
• O=c1[nH]cc(F)c(=O)[nH]1 + CN1CCN(c2cc(C(=O)Nc3cc4cc(-c5cnn(C)c5)ccc4cn3)ccn2)CC1 = active
• CC(=O)O[C@H]1C(=O)[C@@]2(C)[C@H]([C@H](OC(=O)c3ccccc3)[C@]3(O)C[C@H](OC(=O)[C@H](O)[C@@H](NC(=O)c4ccccc4)c4ccccc4)C(C)=C1C3(C)C)[C@]1(OC(C)=O)CO[C@@H]1C[C@@H]2O + CNC(=O)c1ccc(Nc2nc(OC3CCCC3)c3c(-c4ccc5nc(C)oc5c4)c[nH]c3n2)c(OC)c1 = inactive

====

Tested on: 377384-186-R-J1-PDC complex spheroid viability
Assay: Anticancer human tumor 377384-186-R-J1-PDC cell line growth inhibition [CLK]; active = viability on the fitted dose curve at most 10% of control; inactive = the rest;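 also: luminescence signal used as a stand-in for viable cells; spheroids exposed to agents for 7 days before reading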
Settings: second compound 3.16 µM; first compound 0.003 µM
Possible outcomes: class 1 for active, class 0 for inactive

• C=CC(=O)Nc1cc(Nc2nccc(-c3cn(C)c4ccccc34)n2)c(OC)cc1N(C)CCN(C)C + CN1CCN(c2cc(C(=O)Nc3cc4cc(-c5cnn(C)c5)ccc4cn3)ccn2)CC1 = class 1
• C=CC(=O)Nc1cc(Nc2nccc(-c3cn(C)c4ccccc34)n2)c(OC)cc1N(C)CCN(C)C + CNC(=O)c1ccc(Nc2nc(OC3CCCC3)c3c(-c4ccc5nc(C)oc5c4)c[nH]c3n2)c(OC)c1 = class 0
• CC(C)CC(NC(=O)C(Cc1ccccc1)NC(=O)c1cnccn1)B(O)O (centres undefined) + CN1CCN(c2cc(C(=O)Nc3cc4cc(-c5cnn(C)c5)ccc4cn3)ccn2)CC1 = class 1
• CC(C)CC(NC(=O)C(Cc1ccccc1)NC(=O)c1cnccn1)B(O)O (centres undefined) + CNC(=O)c1ccc(Nc2nc(OC3CCCC3)c3c(-c4ccc5nc(C)oc5c4)c[nH]c3n2)c(OC)c1 = class 1

====

Tested on: 377384-186-R-J1-PDC complex spheroid viability
Test: Anticancer human tumor 377384-186-R-J1-PDC cell line growth inhibition [CLK]; active means viability on the fitted dose curve at most 10% of control; inactive means the rest;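 also: luminescence signal used as a stand-in for viable cells; spheroids exposed to agents for 7 days before reading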
Conditions: second compound 3.16 µM; first compound 0.316 µM
Possible outcomes: true (1) (active), false (0) (inactive)

• O=c1[nH]cc(F)c(=O)[nH]1 + CNC(=O)c1ccc(Nc2nc(OC3CCCC3)c3c(-c4ccc5nc(C)oc5c4)c[nH]c3n2)c(OC)c1 = false (0)
• C=CC(=O)N1CCN(c2nc(=O)n(-c3c(C)ccnc3C(C)C)c3nc(-c4c(O)cccc4F)c(F)cc23)C(C)C1 (stereo unspecified) + CNC(=O)c1ccc(Nc2nc(OC3CCCC3)c3c(-c4ccc5nc(C)oc5c4)c[nH]c3n2)c(OC)c1 = false (0)
• CC1COCCN1c1cc(C2(S(C)(=N)=O)CC2)nc(-c2ccnc3[nH]ccc23)n1 (stereo unspecified) + CN1CCN(c2cc(C(=O)Nc3cc4cc(-c5cnn(C)c5)ccc4cn3)ccn2)CC1 = true (1)
• O=C(c1cc(Cc2n[nH]c(=O)c3ccccc23)ccc1F)N1CCN(C(=O)C2CC2)CC1 + CN1CCN(c2cc(C(=O)Nc3cc4cc(-c5cnn(C)c5)ccc4cn3)ccn2)CC1 = true (1)
• CCCS(=O)(=O)Nc1ccc(F)c(C(=O)c2c[nH]c3ncc(-c4ccc(Cl)cc4)cc23)c1F + CN1CCN(c2cc(C(=O)Nc3cc4cc(-c5cnn(C)c5)ccc4cn3)ccn2)CC1 = true (1)
• C#Cc1c(F)ccc2cc(O)cc(-c3ncc4c(N5CC6CCC(C5)N6)nc(OCC56CCCN5CC(F)C6)nc4c3F)c12 (stereo unspecified) + CN1CCN(c2cc(C(=O)Nc3cc4cc(-c5cnn(C)c5)ccc4cn3)ccn2)CC1 = true (1)
• COc1c(OCCCN2CCOCC2)ccc2c3n(c(=NC(=O)c4cnc(N)nc4)nc12)CCN3 + CN1CCN(c2cc(C(=O)Nc3cc4cc(-c5cnn(C)c5)ccc4cn3)ccn2)CC1 = true (1)
• COC1C=CCC(C)C(C)S(=O)(=O)NC(=O)c2ccc3c(c2)N(CC2CCC21)CC1(CCCc2cc(Cl)ccc21)CO3 (stereo unspecified) + CNC(=O)c1ccc(Nc2nc(OC3CCCC3)c3c(-c4ccc5nc(C)oc5c4)c[nH]c3n2)c(OC)c1 = false (0)
• O=c1[nH]cc(F)c(=O)[nH]1 + CN1CCN(c2cc(C(=O)Nc3cc4cc(-c5cnn(C)c5)ccc4cn3)ccn2)CC1 = true (1)
• CC(CO)NC(=O)c1cc(-c2ccc(Cl)cc2)nn(-c2cnn(C)c2)c1=O (stereo unspecified) + CNC(=O)c1ccc(Nc2nc(OC3CCCC3)c3c(-c4ccc5nc(C)oc5c4)c[nH]c3n2)c(OC)c1 = false (0)
• CC1COCCN1c1cc(C2(S(C)(=N)=O)CC2)nc(-c2ccnc3[nH]ccc23)n1 (stereo unspecified) + CNC(=O)c1ccc(Nc2nc(OC3CCCC3)c3c(-c4ccc5nc(C)oc5c4)c[nH]c3n2)c(OC)c1 = false (0)
